Test system: Acanthocheilonema viteae
Protocol Details: Antifilarial activity as percent of surviving A. viteae in Mastomys coucha sterlized after an intraperitoneal dose of 50 mg/kg (for 5 days).
Assay type: functional
Activity values for the molecules below.
Write the number in % without appending the unit.

{"Molecule": "COC(=O)c1cc2c([nH]c3ccccc32)c(-c2cccc(Br)c2)n1", "Activity, %": 100}

Asked: Data request, read-out Activity, for COC(=O)c1cc2c([nH]c3ccccc32)c(-c2cccs2)n1
Given back: 0

Asked: Any idea what its Activity is? The molecule is NC(=O)c1cc2c([nH]c3ccccc32)c(-c2ccccc2Cl)n1
Given back: 100

Asked: Entry NC(=O)c1cc2c([nH]c3ccccc32)c(-c2cccc(Cl)c2)n1 : reported Activity = ?
Given back: 50

Asked: Tell me the measured Activity of NC(=O)c1cc2c([nH]c3ccccc32)c(-c2ccc(Cl)cc2)n1 , please.
Given back: 60

----------
Below is a list of entries, each paired with its recorded Activity value.
Tested on: Acanthocheilonema viteae
Protocol Details: In vivo anti-filarial (microfilaricidal) activity at an ip dose of 50 mg/kg (for 5 days) against A. viteae in Mastomys coucha.
Type: functional
Condition: route intraperitoneal
Express your answer in %, writing the number without its unit.

Examples with their reported Activity follow.
{"Molecule": "COC(=O)C1Cc2c([nH]c3ccccc23)C(c2cccc(Br)c2)N1 (stereo not given)", "Target Under Test": "Acanthocheilonema viteae", "Activity / %": 90}
{"Molecule": "COC(=O)C1Cc2c([nH]c3ccccc23)C(c2ccsc2)N1 (stereo not given)", "Target Under Test": "Acanthocheilonema viteae", "Activity / %": 0}
{"Molecule": "CCN(CC)C(=O)N1CCN(C)CC1.O=C(O)CC(O)(CC(=O)O)C(=O)O [DIETHYLCARBAMAZINE CITRATE]", "Target Under Test": "Acanthocheilonema viteae", "Activity / %": 90}
{"Molecule": "OCc1cc2c([nH]c3ccccc32)c(-c2ccc(F)cc2)n1", "Target Under Test": "Acanthocheilonema viteae", "Activity / %": 0}
{"Molecule": "NC(=O)c1cc2c([nH]c3ccccc32)c(-c2cccc(Cl)c2)n1", "Target Under Test": "Acanthocheilonema viteae", "Activity / %": 84}
{"Molecule": "COC(=O)c1cc2c([nH]c3ccccc32)c(-c2ccccc2Cl)n1", "Target Under Test": "Acanthocheilonema viteae", "Activity / %": 0}

Asked: Which value of Activity has been reported for COC(=O)c1cc2c([nH]c3ccccc32)c(-c2cccs2)n1 in the records?
Given back: 62

Asked: Form field: reported Activity of COC(=O)c1cc2c([nH]c3ccccc32)c(-c2ccc(F)cc2)n1
Given back: 0

Asked: Data request, read-out Activity, for NC(=O)c1cc2c([nH]c3ccccc32)c(-c2ccccc2Cl)n1
Given back: 44

Asked: # Activity lookup, item NC(=O)c1cc2c([nH]c3ccccc32)c(-c2ccc(Cl)cc2)n1
Given back: 0

----------
Tested on: Acanthocheilonema viteae
Protocol Details: In vivo anti-filarial (microfilaricidal) activity at an ip dose of 50 mg/kg (for 5 days) against A. viteae in Mastomys coucha.
Assay type: functional
Condition: route intraperitoneal
Assay Endpoint: Activity (%)
Please state the figure in %; there is no need to write the unit.

{"Compound": "Cc1ccc(-c2[nH]c(CO)cc3c4ccccc4nc2-3)cc1", "Assay Endpoint": "Activity", "Unit Info": "%", "Reading": 0}
{"Compound": "NC(=O)c1cc2c([nH]c3ccccc32)c(-c2ccsc2)n1", "Assay Endpoint": "Activity", "Unit Info": "%", "Reading": 0}
{"Compound": "COC(=O)c1cc2c([nH]c3ccccc32)c(-c2ccc(C)cc2)n1", "Assay Endpoint": "Activity", "Unit Info": "%", "Reading": 0}
{"Compound": "NC(=O)c1cc2c([nH]c3ccccc32)c(-c2cccs2)n1", "Assay Endpoint": "Activity", "Unit Info": "%", "Reading": 93}
{"Compound": "COC(=O)C1Cc2c([nH]c3ccccc23)C(c2ccc(Cl)cc2)N1 (stereo unspecified)", "Assay Endpoint": "Activity", "Unit Info": "%", "Reading": 94}
{"Compound": "COC(=O)C1Cc2c([nH]c3ccccc23)C(c2cccc(Cl)c2)N1 (stereo unspecified)", "Assay Endpoint": "Activity", "Unit Info": "%", "Reading": 0}
{"Compound": "COC(=O)C1Cc2c([nH]c3ccccc23)C(c2ccc(F)cc2)N1 (stereo unspecified)", "Assay Endpoint": "Activity", "Unit Info": "%", "Reading": 0}
{"Compound": "COC(=O)C1Cc2c([nH]c3ccccc23)C(c2ccccc2Cl)N1 (stereo unspecified)", "Assay Endpoint": "Activity", "Unit Info": "%", "Reading": 0}

Asked: What measured Activity goes with COC(=O)C1Cc2c([nH]c3ccccc23)C(c2ccc(C)cc2)N1 (stereo unspecified) ?
Given back: 0

Asked: Please give the measured Activity for this compound: COC(=O)c1cc2c([nH]c3ccccc32)c(-c2cccc(Cl)c2)n1
Given back: 0

----------
Test system: Acanthocheilonema viteae
Protocol Details: Antifilarial activity as percent of surviving A. viteae in Mastomys coucha sterlized after an intraperitoneal dose of 50 mg/kg (for 5 days).
Format: functional
Assay Endpoint: Activity
Note to self: number, then unit, no commentary.

{"Compound": "Cc1ccc(-c2[nH]c(CO)cc3c4ccccc4nc2-3)cc1", "Target Under Test": "Acanthocheilonema viteae", "Assay Endpoint": "Activity", "Reading": "40%"}
{"Compound": "COC(=O)C1Cc2c([nH]c3ccccc23)C(c2ccc(Cl)cc2)N1 (centres undefined)", "Target Under Test": "Acanthocheilonema viteae", "Assay Endpoint": "Activity", "Reading": "100%"}
{"Compound": "COC(=O)c1cc2c([nH]c3ccccc32)c(-c2ccc(F)cc2)n1", "Target Under Test": "Acanthocheilonema viteae", "Assay Endpoint": "Activity", "Reading": "67%"}

Please examine the following record next.
Asked: For OCc1cc2c([nH]c3ccccc32)c(-c2ccc(Cl)cc2)n1 , what is its reported Activity?
Given back: 75%

----------
Test system: Acanthocheilonema viteae
Protocol Details: In vivo anti-filarial (microfilaricidal) activity at an ip dose of 50 mg/kg (for 5 days) against A. viteae in Mastomys coucha.
Type: functional
Condition: route intraperitoneal
Listed here are molecules together with their documented Activity.
Your answer is read as %, so omit the unit and give the number.

{"Structure Smiles String": "OCc1cc2c([nH]c3ccccc32)c(-c2ccc(Cl)cc2)n1", "Target Under Test": "Acanthocheilonema viteae", "Activity (%)": 76}

Asked: Record request: Activity value, item COC(=O)c1cc2c([nH]c3ccccc32)c(-c2ccccc2F)n1
Given back: 0

Asked: For the molecule shown here, COC(=O)c1cc2c([nH]c3ccccc32)c(-c2ccsc2)n1 , give the reported Activity.
Given back: 0

Asked: Give its Activity value. Item: NNC(=O)c1cc2c([nH]c3ccccc32)c(-c2ccsc2)n1
Given back: 91

Asked: Need Activity of NC(=O)c1cc2c([nH]c3ccccc32)c(-c2cccc(Br)c2)n1 , thanks.
Given back: 0

Asked: Field request: Activity | item: COC(=O)c1cc2c([nH]c3ccccc32)c(-c2cccc(Br)c2)n1
Given back: 0
